- system under test: KRAS G12C (Homo sapiens, UniProt P01116+P62937, G12C)
- Sequence (P01116 1-169 isoform P01116-2 G12C limits assumed): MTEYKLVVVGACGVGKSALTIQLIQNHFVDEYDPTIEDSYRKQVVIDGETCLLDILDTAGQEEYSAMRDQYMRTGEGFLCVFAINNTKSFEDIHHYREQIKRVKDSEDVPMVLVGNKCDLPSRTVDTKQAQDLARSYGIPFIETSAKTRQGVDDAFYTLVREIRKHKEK
- Sequence (P62937 whole entry): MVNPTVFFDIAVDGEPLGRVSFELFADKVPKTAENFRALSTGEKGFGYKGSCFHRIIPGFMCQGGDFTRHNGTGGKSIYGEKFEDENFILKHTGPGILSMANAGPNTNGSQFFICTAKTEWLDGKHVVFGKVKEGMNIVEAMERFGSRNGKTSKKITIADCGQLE
- assay method text: Ras-Raf disruption / FRET / MOA assay (BRAF RBD)
- Assay type: biochemical
- run parameters: KRAS G12C FRET data IC50, Ras-Raf disruption, with Cyclophilin A
// values below are reported IC50
readout type: IC50

molecule="CCn1c(-c2cccnc2[C@H](C)OC)c2c3cc(ccc31)-c1cc(O)cc(c1)C[C@H](NC(=O)[C@H](C(C)C)N(C)C(=O)CN(C)C(=O)[C@@H]1CN1CCCN1CCCC1=O)C(=O)N1CCC[C@H](N1)C(=O)OCC(C)(C)C2 (some centres unmarked) [Example 269]" reported="< 10 nM"
molecule="CCn1c(-c2cccnc2[C@H](C)OC)c2c3cc(ccc31)-c1cc(O)cc(c1)C[C@H](NC(=O)[C@H](C(C)C)N(C)C(=O)CN(C)C(=O)[C@H]1CN1C1COC1)C(=O)N1CCC[C@H](N1)C(=O)OCC(C)(C)C2 (some centres unmarked) [Example 275]" reported="10 to 100 nM"
molecule="CCn1c(-c2cccnc2[C@H](C)OC)c2c3cc(ccc31)-c1cc(O)cc(c1)C[C@H](NC(=O)[C@H](C1CCCC1)N(C)C(=O)CN(C)C(=O)[C@H]1N[C@H]1C1(C#N)CC1)C(=O)N1CCC[C@H](N1)C(=O)OCC(C)(C)C2 [Example 316]" reported="10 to 100 nM"
molecule="CCn1c(-c2cccnc2[C@H](C)OC)c2c3cc(ccc31)-c1cc(O)cc(c1)C[C@H](NC(=O)[C@H](C1CCCC1)N(C)C(=O)CN(C)C(=O)[C@H]1CN1)C(=O)N1CCC[C@H](N1)C(=O)OCC(C)(C)C2 [Example 95]" reported="< 10 nM"
molecule="CCn1c(-c2cccnc2[C@H](C)OC)c2c3cc(ccc31)-c1cc(O)cc(c1)C[C@H](NC(=O)[C@H](C(C)C)N(C)C(=O)[C@H]1CC[C@@H](C)N1C(=O)[C@H]1CN1)C(=O)N1CCC[C@H](N1)C(=O)OCC(C)(C)C2 [Example 154]" reported="10 to 100 nM"
molecule="CCn1c(-c2cccnc2[C@H](C)OC)c2c3cc(ccc31)-c1cc(O)cc(c1)C[C@H](NC(=O)[C@H](C(C)C)N(C)C(=O)CN(C)C(=O)[C@@H]1CN1C(C)C)C(=O)N1CCC[C@H](N1)C(=O)OCC(C)(C)C2 (some centres unmarked) [Example 148]" reported="< 10 nM"
molecule="CCn1c(-c2cccnc2[C@H](C)OC)c2c3cc(ccc31)-c1cc(O)cc(c1)C[C@H](NC(=O)[C@H](C(C)C)N(C)C(=O)CN(C)C(=O)[C@H]1CN1Cc1ccccc1F)C(=O)N1CCC[C@H](N1)C(=O)OCC(C)(C)C2 (some centres unmarked) [Example 155]" reported="10 to 100 nM"
molecule="CCn1c(-c2cccnc2[C@H](C)OC)c2c3cc(ccc31)-c1csc(n1)C[C@H](NC(=O)[C@H](C1CCCC1)N(C)C(=O)CN(C)C(=O)[C@@H]1N[C@@H]1C1CC1)C(=O)N1CCC[C@H](N1)C(=O)OCC(C)(C)C2 [Example 210]" reported="100 to 1000 nM"
